tested-on: SARS-HCoV spike protein (SARS-coronavirus (Tor-3 strain), UniProt P59594 14-1255)
protocol-text: ELISA, OD on native virus against OD on heat-denatured virus
# Lookup of reported O.D. Reduction, Fold keyed by entry

Past entries and their recorded results:
GET /values?readout=O.D. Reduction, Fold&item= F26G18 (antibody, V domains shown) VH: LVQLEESGTVLPRPGASVKMSCKASGYTFTSYWMHWVKQRPGQGLEWIGAIYPGNSDTNYNQKFKGRATLTAVTSTSTASMELSSLTNEDSAVYYCTRDGYGSLYYYAMDFWGQGTSVTVSS VL: ELVMTQSPSSLSASLGDRVTISCRASQDISNYLNWYQQKPDGTVKLLIYYTSRLHAGVPSRFSGSGSGTDYSLTISNLEQEDIATYFCQQGYTLPYTFGGGTKLEIKR 3.6 fold

GET /values?readout=O.D. Reduction, Fold&item= F26G8 (antibody, V domains shown) VH: VQLLESGAELVKPGASVKVSCKASGYTFTSYWIHWVKQRPGQGLEWIGEINPSNGRTNYNGNFESKATLTVDKSSNTAYMHLSSLTYEDSAVYHCTRLDYWGQGTTLTVSS VL: ELVMTQSPASLSVITGKKVTIRCISNTDIDDDLNWSQLKAGEPPKLLISEGNIFSPGVPSRFSSSGNGTDFVFTIENTLSEDVANNYCFQSDNMPFTFGSGTKLEIKR 2.8 fold

The record that follows has no O.D. Reduction, Fold shown yet.
GET /values?readout=O.D. Reduction, Fold&item= F26G6 (antibody, V domains shown) VH: QVQLQQPGAELVKPGASVKVSCKASGYTFTNYWIHWVKQRPGQGLEWIGEINPGNGRTNYNGNFMNKATLTVDKSSNTAYMQLSSLTSEDSAVYHCARLDYWGQGTTLTVSS VL: ELVMTQSPASLSVATGKKVTIRCISSTDIDDDMNWYQQKAGKPPKLLISEGNIFSPGVPSRFSSSGNGTDFVFTVENTLSEDVADNYCLQSDNMPFTFGSGTKLGIKR 2.7 fold
